Cited source for all entries: patent US20130230459A1

Test: Biodistribution studies of 11C tracers
Assay type: in vivo, Wistar rats
Conditions: 30 min p.i.
Listed here: items and their measured % ID Heart.
Measure Name: % ID Heart (% ID)

compound="[11CH3]Oc1ccc(F)cc1C1CCN(c2ccn3c(CC4CC4)nnc3c2Cl)CC1 [[^11C]B-4]" measure_name="% ID Heart" unit_of_measurement="% ID" assay_result=2.5
compound="[11CH3]Oc1c(F)ccc(F)c1C1CCN(c2ccn3c(CC4CC4)nnc3c2Cl)CC1 [[^11C]B-2]" measure_name="% ID Heart" unit_of_measurement="% ID" assay_result=2.5
compound="[11CH3]Oc1cccc(F)c1C1CCN(c2ccn3c(CC4CC4)nnc3c2Cl)CC1 [[^11C]B-6]" measure_name="% ID Heart" unit_of_measurement="% ID" assay_result=1.7
compound="[11CH3]Oc1ccc(F)c(F)c1C1CCN(c2ccn3c(CC4CC4)nnc3c2Cl)CC1 [[^11C]B-10]" measure_name="% ID Heart" unit_of_measurement="% ID" assay_result=1.8
compound="[11CH3]Oc1cc(F)cc(F)c1C1CCN(c2ccn3c(CC4CC4)nnc3c2Cl)CC1 [[^11C]B-7]" measure_name="% ID Heart" unit_of_measurement="% ID" assay_result=1.4
compound="[11CH3]Oc1c(F)ccc(F)c1C1CCN(c2ccn3c(CC4CC4)nnc3c2C(F)(F)F)CC1 [[^11C]B-3]" measure_name="% ID Heart" unit_of_measurement="% ID" assay_result=1.7

----------
Assay: Biodistribution studies of 11C tracers
Format: in vivo, Wistar rats
Conditions: 30 min p.i.
Label yes (1) for high-side % ID Cortex (at or above 0.1 % ID) and no (0) for low-side % ID Cortex (below it).

compound="[11CH3]Oc1cc(F)cc(F)c1C1CCN(c2ccn3c(CC4CC4)nnc3c2Cl)CC1 [[^11C]B-7]" class_name="yes (1)"
compound="[11CH3]Oc1cccc(F)c1C1CCN(c2ccn3c(CC4CC4)nnc3c2Cl)CC1 [[^11C]B-6]" class_name="no (0)"
compound="[11CH3]Oc1ccc(F)c(F)c1C1CCN(c2ccn3c(CC4CC4)nnc3c2Cl)CC1 [[^11C]B-10]" class_name="no (0)"
compound="[11CH3]Oc1c(F)ccc(F)c1C1CCN(c2ccn3c(CC4CC4)nnc3c2Cl)CC1 [[^11C]B-2]" class_name="yes (1)"
compound="[11CH3]Oc1c(F)ccc(F)c1C1CCN(c2ccn3c(CC4CC4)nnc3c2C(F)(F)F)CC1 [[^11C]B-3]" class_name="no (0)"
compound="[11CH3]Oc1ccc(F)cc1C1CCN(c2ccn3c(CC4CC4)nnc3c2Cl)CC1 [[^11C]B-4]" class_name="yes (1)"

----------
% ID Heart by entry:
Test: Biodistribution studies of 11C tracers
Type: in vivo, Wistar rats
Conditions: 2 min p.i.
Measure Name: % ID Heart (% ID)

compound="[11CH3]Oc1c(F)ccc(F)c1C1CCN(c2ccn3c(CC4CC4)nnc3c2Cl)CC1 [[^11C]B-2]" assay_result=4.6
compound="[11CH3]Oc1c(F)ccc(F)c1C1CCN(c2ccn3c(CC4CC4)nnc3c2C(F)(F)F)CC1 [[^11C]B-3]" assay_result=4.8
compound="[11CH3]Oc1cccc(F)c1C1CCN(c2ccn3c(CC4CC4)nnc3c2Cl)CC1 [[^11C]B-6]" assay_result=4.1
compound="[11CH3]Oc1cc(F)cc(F)c1C1CCN(c2ccn3c(CC4CC4)nnc3c2Cl)CC1 [[^11C]B-7]" assay_result=4.1
compound="[11CH3]Oc1ccc(F)cc1C1CCN(c2ccn3c(CC4CC4)nnc3c2Cl)CC1 [[^11C]B-4]" assay_result=4.1
compound="[11CH3]Oc1ccc(F)c(F)c1C1CCN(c2ccn3c(CC4CC4)nnc3c2Cl)CC1 [[^11C]B-10]" assay_result=4.3

----------
Assay: Plasma radiometabolite analysis (30 min p.i.)
Format: in vivo, Wistar rats
Details: n = 2
Measure Name: Polar metabolites in rat plasma (%)

compound="[11CH3]Oc1ccc(F)cc1C1CCN(c2ccn3c(CC4CC4)nnc3c2Cl)CC1 [[^11C]B-4]" assay_result=59.0
compound="[11CH3]Oc1cc(F)cc(F)c1C1CCN(c2ccn3c(CC4CC4)nnc3c2Cl)CC1 [[^11C]B-7]" assay_result=69.2
compound="[11CH3]Oc1c(F)ccc(F)c1C1CCN(c2ccn3c(CC4CC4)nnc3c2Cl)CC1 [[^11C]B-2]" assay_result=30.3
compound="[11CH3]Oc1ccc(F)c(F)c1C1CCN(c2ccn3c(CC4CC4)nnc3c2Cl)CC1 [[^11C]B-10]" assay_result=54.5

----------
Test: Biodistribution studies of 11C tracers
Format: in vivo, Wistar rats
Conditions: 2 min p.i., normalized for body weight
Description: Biodistribution studies were carried out in healthy male Wistar rats (body weight 200-450 g) at 2 min, 30 min and 60 min post injection (p.i.) (n=3/time point). […] The radioactivity in blood, organs and other body parts was measured using an automated gamma counter. […] For calculation of total radioactivity in blood, blood mass was assumed to be 7% of the body mass.
Measure Name: SUV Cortex

compound="[11CH3]Oc1c(F)ccc(F)c1C1CCN(c2ccn3c(CC4CC4)nnc3c2Cl)CC1 [[^11C]B-2]" measure_name="SUV Cortex" assay_result=1.46
compound="[11CH3]Oc1c(F)ccc(F)c1C1CCN(c2ccn3c(CC4CC4)nnc3c2C(F)(F)F)CC1 [[^11C]B-3]" measure_name="SUV Cortex" assay_result=1.03
compound="[11CH3]Oc1cccc(F)c1C1CCN(c2ccn3c(CC4CC4)nnc3c2Cl)CC1 [[^11C]B-6]" measure_name="SUV Cortex" assay_result=1.04
compound="[11CH3]Oc1cc(F)cc(F)c1C1CCN(c2ccn3c(CC4CC4)nnc3c2Cl)CC1 [[^11C]B-7]" measure_name="SUV Cortex" assay_result=1.14
compound="[11CH3]Oc1ccc(F)cc1C1CCN(c2ccn3c(CC4CC4)nnc3c2Cl)CC1 [[^11C]B-4]" measure_name="SUV Cortex" assay_result=1.65

----------
Experiment: Biodistribution studies of 11C tracers
Type: in vivo, Wistar rats
Settings: 30 min p.i.
Reported % ID Spleen + Pancreas values for a set of compounds
Measure Name: % ID Spleen + Pancreas (% ID)

compound="[11CH3]Oc1c(F)ccc(F)c1C1CCN(c2ccn3c(CC4CC4)nnc3c2Cl)CC1 [[^11C]B-2]" unit_of_measurement="% ID" assay_result=1.4
compound="[11CH3]Oc1cc(F)cc(F)c1C1CCN(c2ccn3c(CC4CC4)nnc3c2Cl)CC1 [[^11C]B-7]" unit_of_measurement="% ID" assay_result=1.2
compound="[11CH3]Oc1ccc(F)c(F)c1C1CCN(c2ccn3c(CC4CC4)nnc3c2Cl)CC1 [[^11C]B-10]" unit_of_measurement="% ID" assay_result=1.1
compound="[11CH3]Oc1c(F)ccc(F)c1C1CCN(c2ccn3c(CC4CC4)nnc3c2C(F)(F)F)CC1 [[^11C]B-3]" unit_of_measurement="% ID" assay_result=1.1
compound="[11CH3]Oc1cccc(F)c1C1CCN(c2ccn3c(CC4CC4)nnc3c2Cl)CC1 [[^11C]B-6]" unit_of_measurement="% ID" assay_result=1.0
compound="[11CH3]Oc1ccc(F)cc1C1CCN(c2ccn3c(CC4CC4)nnc3c2Cl)CC1 [[^11C]B-4]" unit_of_measurement="% ID" assay_result=1.4

----------
// values below are reported intact tracer in perfused cerebellum
Assay: Perfused brain radiometabolite analysis (30 min p.i.)
Type: in vivo, Wistar rats
Measure Name: intact tracer in perfused cerebellum (%)

molecule="[11CH3]Oc1ccc(F)cc1C1CCN(c2ccn3c(CC4CC4)nnc3c2Cl)CC1 [[^11C]B-4]" measure_name="intact tracer in perfused cerebellum" assay_result=92.7
molecule="[11CH3]Oc1cc(F)cc(F)c1C1CCN(c2ccn3c(CC4CC4)nnc3c2Cl)CC1 [[^11C]B-7]" measure_name="intact tracer in perfused cerebellum" assay_result=95.5
molecule="[11CH3]Oc1c(F)ccc(F)c1C1CCN(c2ccn3c(CC4CC4)nnc3c2Cl)CC1 [[^11C]B-2]" measure_name="intact tracer in perfused cerebellum" assay_result=95.5
molecule="[11CH3]Oc1ccc(F)c(F)c1C1CCN(c2ccn3c(CC4CC4)nnc3c2Cl)CC1 [[^11C]B-10]" measure_name="intact tracer in perfused cerebellum" assay_result=96.4

----------
Test: Biodistribution studies of 11C tracers
Type: in vivo, Wistar rats
Details: 60 min p.i., normalized for body weight
Measure Name: SUV Cerebrum total

compound="[11CH3]Oc1ccc(F)cc1C1CCN(c2ccn3c(CC4CC4)nnc3c2Cl)CC1 [[^11C]B-4]" measure_name="SUV Cerebrum total" assay_result=1.40
compound="[11CH3]Oc1cc(F)cc(F)c1C1CCN(c2ccn3c(CC4CC4)nnc3c2Cl)CC1 [[^11C]B-7]" measure_name="SUV Cerebrum total" assay_result=1.19
compound="[11CH3]Oc1cccc(F)c1C1CCN(c2ccn3c(CC4CC4)nnc3c2Cl)CC1 [[^11C]B-6]" measure_name="SUV Cerebrum total" assay_result=1.24
compound="[11CH3]Oc1ccc(F)c(F)c1C1CCN(c2ccn3c(CC4CC4)nnc3c2Cl)CC1 [[^11C]B-10]" measure_name="SUV Cerebrum total" assay_result=1.19
compound="[11CH3]Oc1c(F)ccc(F)c1C1CCN(c2ccn3c(CC4CC4)nnc3c2C(F)(F)F)CC1 [[^11C]B-3]" measure_name="SUV Cerebrum total" assay_result=1.38
compound="[11CH3]Oc1c(F)ccc(F)c1C1CCN(c2ccn3c(CC4CC4)nnc3c2Cl)CC1 [[^11C]B-2]" measure_name="SUV Cerebrum total" assay_result=1.11
